meta.source: PubChem BioAssay (NCI)

# Test system: A549 NSCLC
# assay: NCI tumour cell line growth inhibition, 48 h
measuredMetric: TGI (µM)
Output spec: scalar in µM, unitless text.

Give the reported value of TGI for this record: `O=c1c2ccccc2nc2n1CCc1c-2[nH]c2ccccc12`
37.4

Give the reported value of TGI for this record: `Nc1cc(C(F)(F)F)c(-c2nc(N3CCOCC3)nc(N3CCOCC3)n2)cn1`
8.62

Give the reported value of TGI for this record: COC1=CC(=O)C(O)=C(CC2(C)C(C)CCC3(C)C2CCCC3(C)C)C1=O (stereo not given)
11.6

Give the reported value of TGI for this record: CN(C)CCCC1(c2ccc(F)cc2)OCc2cc(-c3csc4ccccc34)ccc21 (stereo not given)
3.66

====

# System: RXF 393 renal
# assay: NCI tumour cell line growth inhibition, 48 h
Please respond with reported TGI for every item in the list.

Give the reported value of TGI for this record: `Oc1c(Br)cc(Cl)cc1C(c1cc(Cl)cc(Br)c1O)C(Cl)(Cl)Cl`
8.77 µM

Give the reported value of TGI for this record: `O=C(/C=C(\[O-])c1ccccc1)CCCCCCC(=O)/C=C(\[O-])c1ccccc1.O=C(/C=C(\[O-])c1ccccc1)CCCCCCC(=O)/C=C(\[O-])c1ccccc1.O=C(/C=C(\[O-])c1ccccc1)CCCCCCC(=O)/C=C(\[O-])c1ccccc1.[Y+3].[Y+3]`
37.4 µM

Give the reported value of TGI for this record: O/N=C1/C(=C/c2ccc(OCc3ccccc3)cc2)CCCC1C(NO)c1ccc(OCc2ccccc2)cc1 (stereo not drawn)
24.9 µM

Give the reported value of TGI for this record: O=C(OC1OC2COC(=O)c3cc(O)c(O)c(O)c3-c3c(cc(O)c(O)c3O)C(=O)OC3C2OC(=O)[C@@]24CC(=O)[C@@](O)(OC25C(=O)O[C@H]2[C@@H](O)CO[C@@]25O)C2(O)Oc5c(O)c(O)cc(c5C24)C(=O)OC13)c1cc(O)c(O)c(O)c1 (stereo partly drawn)
> 100 µM

Give the reported value of TGI for this record: `CCCCCCCCCCCCCCCCOP(=O)([O-])OCC[N+](C)(C)C1CC(C)(C)N(O)C(C)(C)C1`
> 100 µM

Give the reported value of TGI for this record: `CN(C)c1ccc(/C=C2\CCc3ccccc3C2=O)cc1Br`
> 100 µM

Give the reported value of TGI for this record: `Cc1ccc(-c2nc([P+](c3ccccc3)(c3ccccc3)c3ccccc3)c(N3CCOCC3)o2)cc1`
4.25 µM

Give the reported value of TGI for this record: `CC(C)(C)n1c(=O)n2c(-c3ccccc3)c(-c3ccccc3)n2c1=O`
> 100 µM

====

Please respond with reported TGI for every item in the list.
# Tested on: DMS 273 small cell lung
# assay: NCI tumour cell line growth inhibition, 48 h

Give the reported value of TGI for this record: C/C=C1/C=CC2c3[nH]c4ccccc4c3CCN2C1 (stereo unspecified)
> 400 µM

Give the reported value of TGI for this record: COc1ccc(C(C)Nc2cc(OC)c(OC)c(OC)c2)cc1 (stereo unspecified)
> 100 µM

Give the reported value of TGI for this record: `CCCCCNC(=O)CCCCCCCCCCCNC(=O)CCCCCCCCCCN1C=CC(=CC=C2C=CC(=O)C=C2)C=C1`
> 100 µM

Give the reported value of TGI for this record: `Cc1ccccc1NC(=O)CC(=O)NNCC(=O)Nc1nnc(-c2ccccc2)s1`
> 100 µM

Give the reported value of TGI for this record: CCN(CC)c1ccc(Cl)c2c1C(O)(C(C)C)C2(C)C (stereo unspecified)
29.5 µM

Give the reported value of TGI for this record: `Cc1cc(C=O)c2c(=O)c3c(O)ccc(/C=C/C(C)C)c3oc2c1`
> 100 µM

Give the reported value of TGI for this record: O=C(CC1(O)C(=O)Nc2c(Cl)cc(Cl)cc21)c1cccc([N+](=O)[O-])c1 (stereo unspecified)
> 100 µM

Give the reported value of TGI for this record: CCC12C=C(C(=O)OC)N3c4ccccc4C4CCN(CCC1)C2C43 (stereo unspecified)
> 100 µM

Give the reported value of TGI for this record: `N#Cc1c(CC(=O)O)cc(=O)n2c1[nH]c1ccccc12`
> 100 µM

Give the reported value of TGI for this record: COC(=O)C1CC(=O)O[C@H]1c1ccc(OC)c(OC)c1 (stereo partly specified)
> 100 µM

Give the reported value of TGI for this record: `CC1(C)CC(=O)C(C(=O)Nc2cccs2)=C(O)C1`
82 µM
